src = patent US20180320217A1

System: oral lavage
Assay comment: Formation of formazan dyes: oral lavage and diaphorase, not malate (TABLE 11)
Format: biochemical, human
Measurement setup: oral lavage and diaphorase, not malate; 8 h
Measured quantity: Formation of formazan dyes, absorbance, Means 8 h

INSERT INTO results (query_smiles, endpoint_value) VALUES
  ('COc1cc(-c2ccc(-[n+]3nc(-c4ccc(C(=O)N(CCS(=O)(=O)[O-])CCS(=O)(=O)[O-])cc4)nn3-c3nc4ccccc4s3)c(OC)c2)ccc1-[n+]1nc(-c2ccc(C(=O)N(CCS(=O)(=O)[O-])CCS(=O)(=O)[O-])cc2)nn1-c1nc2ccccc2s1.[Na+].[Na+]', 0.84),
  ('O=[N+]([O-])c1ccc(-[n+]2nc(-c3ccc(S(=O)(=O)[O-])cc3S(=O)(=O)[O-])nn2-c2ccc(I)cc2)cc1.[Na+]', 1.34),
  ('COc1cc([N+](=O)[O-])ccc1-[n+]1nc(-c2ccc(S(=O)(=O)[O-])cc2S(=O)(=O)[O-])nn1-c1ccc([N+](=O)[O-])cc1.[Na+]', 1.00),
  ('COc1cc([N+](=O)[O-])c(S(=O)(=O)[O-])cc1-n1nc(C(=O)Nc2ccccc2)n[n+]1-c1cc(S(=O)(=O)O)c([N+](=O)[O-])cc1OC', 1.26),
  ('Cc1nc(-[n+]2nc(-c3cccc(OCC(=O)O)c3)nn2-c2ccc(S(=O)(=O)[O-])cc2)sc1C', 1.21);

---

Consider the following compounds and their measured Formation of formazan dyes, absorbance, Means 10 h readings.
Test system: oral lavage
Assay comment: Formation of formazan dyes: oral lavage, malate and diaphorase (TABLE 12)
Assay type: biochemical, human
Measurement setup: oral lavage, malate and diaphorase; 10 h
Measured quantity: Formation of formazan dyes, absorbance, Means 10 h

INSERT INTO results (compound, endpoint_value) VALUES
  ('COc1cc(-c2ccc(-[n+]3nc(-c4ccc(C(=O)N(CCS(=O)(=O)[O-])CCS(=O)(=O)[O-])cc4)nn3-c3nc4ccccc4s3)c(OC)c2)ccc1-[n+]1nc(-c2ccc(C(=O)N(CCS(=O)(=O)[O-])CCS(=O)(=O)[O-])cc2)nn1-c1nc2ccccc2s1.[Na+].[Na+] [WST-5]', 1.02),
  ('COc1cc([N+](=O)[O-])ccc1-[n+]1nc(-c2ccc(S(=O)(=O)[O-])cc2S(=O)(=O)[O-])nn1-c1ccc([N+](=O)[O-])cc1.[Na+] [WST-8]', 1.09);

---

Catalogue of Formation of formazan dyes, absorbance, Means 12 h readings, one per entry.
Test system: diaphorase
Assay comment: Formation of formazan dyes: NADH, diaphorase and malate (TABLE 8)
Assay type: biochemical, Clostridium kluyveri
Measurement setup: NADH, diaphorase and malate; 12 h
Measured quantity: Formation of formazan dyes, absorbance, Means 12 h

INSERT INTO assay_data (query_smiles, target_system, endpoint_value) VALUES
  ('O=[N+]([O-])c1ccc(-[n+]2nc(-c3ccc(S(=O)(=O)[O-])cc3S(=O)(=O)[O-])nn2-c2ccc(I)cc2)cc1.[Na+]', 'diaphorase', 2.38),
  ('Cc1nc(-[n+]2nc(-c3cccc(OCC(=O)O)c3)nn2-c2ccc(S(=O)(=O)[O-])cc2)sc1C', 'diaphorase', 3.20),
  ('COc1cc([N+](=O)[O-])ccc1-[n+]1nc(-c2ccc(S(=O)(=O)[O-])cc2S(=O)(=O)[O-])nn1-c1ccc([N+](=O)[O-])cc1.[Na+]', 'diaphorase', 3.45);
